Data origin: patent US20260015426A1

This listing pairs binders with measured HEK-Blue, IL-33, IC50 (Fab).
# assayed system: T1, human IL1RAP (hu-IL1RAP) on human cells (human, UniProt Q9NPH3 21-570)
# T1 sequence: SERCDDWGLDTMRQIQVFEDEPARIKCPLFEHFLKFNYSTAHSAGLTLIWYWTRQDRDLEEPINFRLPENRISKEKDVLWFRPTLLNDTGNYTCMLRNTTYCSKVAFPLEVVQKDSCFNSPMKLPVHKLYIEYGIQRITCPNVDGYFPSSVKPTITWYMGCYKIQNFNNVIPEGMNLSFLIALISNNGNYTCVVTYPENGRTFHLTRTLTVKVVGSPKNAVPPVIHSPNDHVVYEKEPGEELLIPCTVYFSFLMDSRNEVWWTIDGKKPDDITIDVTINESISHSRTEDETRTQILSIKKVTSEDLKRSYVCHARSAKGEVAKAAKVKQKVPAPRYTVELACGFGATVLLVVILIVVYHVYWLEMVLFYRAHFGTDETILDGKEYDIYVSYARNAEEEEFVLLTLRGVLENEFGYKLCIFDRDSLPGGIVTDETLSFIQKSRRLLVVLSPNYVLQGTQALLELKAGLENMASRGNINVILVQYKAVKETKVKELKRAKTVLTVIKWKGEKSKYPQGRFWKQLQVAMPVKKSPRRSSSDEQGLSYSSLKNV
# experiment: cell-based or functional assay
Answer in nM, number only, no unit symbol.

Worked cases, answers included:
binder | HEK-Blue, IL-33, IC50 (Fab) / nM
K10/H2 Fab (VL-A51Y, VH-R96D) (Fab, V domains shown, Fab with 8xHis tag) VH: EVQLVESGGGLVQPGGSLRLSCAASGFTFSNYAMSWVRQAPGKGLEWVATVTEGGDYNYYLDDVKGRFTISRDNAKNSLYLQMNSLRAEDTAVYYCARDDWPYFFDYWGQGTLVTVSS VL: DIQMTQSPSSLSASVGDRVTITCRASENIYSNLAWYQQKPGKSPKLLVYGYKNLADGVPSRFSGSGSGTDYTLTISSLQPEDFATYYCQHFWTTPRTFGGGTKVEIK | 2.17
K13/H3 Fab (VL-A51Y/W92I, VH-V51S) (Fab, V domains shown, Fab with 8xHis tag) VH: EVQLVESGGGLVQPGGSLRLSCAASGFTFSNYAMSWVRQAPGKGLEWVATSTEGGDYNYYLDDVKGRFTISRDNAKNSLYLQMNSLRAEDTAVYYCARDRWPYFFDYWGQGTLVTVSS VL: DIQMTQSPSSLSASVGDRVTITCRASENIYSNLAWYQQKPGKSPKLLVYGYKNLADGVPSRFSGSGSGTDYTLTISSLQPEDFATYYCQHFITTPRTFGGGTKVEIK | 2.07
Parent Fab (Fab of h11C5_C59Y/A43S) (Fab, V domains shown, Fab with 8xHis tag; also called parental Fab of h11C5_C59Y/A43S) VH: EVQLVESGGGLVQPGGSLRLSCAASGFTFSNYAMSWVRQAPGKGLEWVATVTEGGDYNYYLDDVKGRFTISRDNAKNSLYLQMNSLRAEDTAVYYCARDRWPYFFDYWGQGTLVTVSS VL: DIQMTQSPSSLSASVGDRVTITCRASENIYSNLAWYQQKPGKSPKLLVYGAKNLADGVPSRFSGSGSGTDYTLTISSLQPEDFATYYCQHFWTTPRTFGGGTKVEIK | 26.4
K17/H2 Fab (VL-A51Y/W92K, VH-R96D) (Fab, V domains shown, Fab with 8xHis tag) VH: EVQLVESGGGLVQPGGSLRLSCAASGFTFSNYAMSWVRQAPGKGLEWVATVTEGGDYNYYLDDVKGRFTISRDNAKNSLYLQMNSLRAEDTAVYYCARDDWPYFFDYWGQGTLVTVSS VL: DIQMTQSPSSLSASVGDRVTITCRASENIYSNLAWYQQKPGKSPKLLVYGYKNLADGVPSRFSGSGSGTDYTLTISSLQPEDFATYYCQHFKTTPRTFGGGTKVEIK | 4.71
K10 Fab (VL A51Y) (Fab, V domains shown, Fab with 8xHis tag) VH: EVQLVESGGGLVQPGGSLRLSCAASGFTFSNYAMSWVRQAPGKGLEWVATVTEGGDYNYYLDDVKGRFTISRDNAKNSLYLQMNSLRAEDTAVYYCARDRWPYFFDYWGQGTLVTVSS VL: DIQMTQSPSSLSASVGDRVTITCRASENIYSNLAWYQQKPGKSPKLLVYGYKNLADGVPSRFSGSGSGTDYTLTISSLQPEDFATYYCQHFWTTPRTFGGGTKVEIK | 3.26
K13 Fab (VL A51Y/W92I) (Fab, V domains shown, Fab with 8xHis tag) VH: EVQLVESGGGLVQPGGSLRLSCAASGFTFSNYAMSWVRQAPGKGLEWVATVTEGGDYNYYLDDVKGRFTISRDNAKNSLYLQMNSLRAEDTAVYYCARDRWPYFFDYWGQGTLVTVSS VL: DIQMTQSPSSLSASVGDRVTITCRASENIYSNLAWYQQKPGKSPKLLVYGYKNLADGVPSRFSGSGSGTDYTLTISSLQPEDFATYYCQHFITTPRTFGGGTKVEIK | 3.17

Record K17 Fab (VL A51Y/W92K) (Fab, V domains shown, Fab with 8xHis tag) VH: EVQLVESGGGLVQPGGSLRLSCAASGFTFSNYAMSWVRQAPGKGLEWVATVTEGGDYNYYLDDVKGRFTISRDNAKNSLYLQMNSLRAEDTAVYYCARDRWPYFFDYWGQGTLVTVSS VL: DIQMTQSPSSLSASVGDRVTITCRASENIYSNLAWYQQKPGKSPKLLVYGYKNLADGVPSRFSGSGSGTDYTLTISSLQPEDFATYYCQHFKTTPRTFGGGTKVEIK , field HEK-Blue, IL-33, IC50 (Fab): 5.38

HEK-Blue, IL-33, IC50 (Fab) for K10/H3 Fab (VL-A51Y, VH-V51S) (Fab, V domains shown, Fab with 8xHis tag) VH: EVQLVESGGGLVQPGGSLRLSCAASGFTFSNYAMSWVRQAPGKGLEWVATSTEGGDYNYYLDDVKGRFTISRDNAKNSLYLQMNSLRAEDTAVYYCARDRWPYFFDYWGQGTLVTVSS VL: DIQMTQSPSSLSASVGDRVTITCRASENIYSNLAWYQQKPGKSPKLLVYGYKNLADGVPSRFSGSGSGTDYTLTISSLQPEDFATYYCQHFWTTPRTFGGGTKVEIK is 2.43

Data point: K17/H3 Fab (VL-A51Y/W92K, VH-V51S) (Fab, V domains shown, Fab with 8xHis tag) VH: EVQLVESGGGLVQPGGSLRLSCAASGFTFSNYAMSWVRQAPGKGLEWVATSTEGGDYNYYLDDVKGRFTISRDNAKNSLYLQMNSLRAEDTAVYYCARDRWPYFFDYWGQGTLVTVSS VL: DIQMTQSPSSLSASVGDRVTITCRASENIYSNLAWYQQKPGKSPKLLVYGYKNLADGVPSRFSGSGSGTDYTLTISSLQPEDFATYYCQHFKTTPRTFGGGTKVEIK ; HEK-Blue, IL-33, IC50 (Fab) = 3.53

For record K13/H2 Fab (VL-A51Y/W92I, VH-R96D) (Fab, V domains shown, Fab with 8xHis tag) VH: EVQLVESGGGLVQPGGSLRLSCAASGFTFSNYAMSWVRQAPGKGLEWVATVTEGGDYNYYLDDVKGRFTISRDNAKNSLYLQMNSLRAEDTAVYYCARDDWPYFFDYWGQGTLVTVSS VL: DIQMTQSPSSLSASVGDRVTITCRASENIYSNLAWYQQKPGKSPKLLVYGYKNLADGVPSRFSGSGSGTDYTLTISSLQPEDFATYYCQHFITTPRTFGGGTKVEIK the listed HEK-Blue, IL-33, IC50 (Fab) is 2.39
